Source of measurements: patent US10238631B2

Measured IC50, listed per entry for reference.
Test system: A2058 (BRAF mutation)
Measurement description: MTT cell viability assay, A2058 melanoma
Format: cell-based, human
Condition set: Homo sapiens, A2058, 24 h

Compound	IC50
C=C1C(=O)OC2CC3=C[C@@H](C/C(C)=C/C(OC(=O)Cc4cccc5cc(OC)ccc45)[C@H]12)OC3=O (some centres unmarked) [DETD-45]	3.6 µM
C=C(CC)C(=O)OC1/C=C(\C)C[C@@H]2C=C(CC3OC(=O)C(=C)[C@@H]13)C(=O)O2 (some centres unmarked) [DETD-19]	> 10 µM
C=C1C(=O)OC2CC3=C[C@@H](C/C(C)=C/C(OC(=O)/C(C)=C/CC)[C@H]12)OC3=O (some centres unmarked) [DETD-5]	5.8 µM
C=C1C(=O)OC2CC3=C[C@@H](C/C(C)=C/C(OC(=O)/C=C/c4cccs4)[C@H]12)OC3=O (some centres unmarked) [DETD-42]	> 10 µM
C=C1C(=O)OC2CC3=C[C@@H](C/C(C)=C/[C@@H](OC(=O)[C@H](OC)c4ccc5ccccc5c4)[C@H]12)OC3=O (some centres unmarked) [DETD-57]	8.3 µM

Ask | Enter reported IC50 observed with A2058 (BRAF mutation) for C=C1C(=O)OC2CC3=C[C@@H](C/C(C)=C/C(OC(=O)CC(C)CC)[C@H]12)OC3=O (some centres unmarked) [DETD-18]
Reply | > 10 µM

Ask | Enter reported IC50 observed with A2058 (BRAF mutation) for C=C1C(=O)OC2CC3=C[C@@H](C/C(C)=C/C(OC(=O)CCc4cccc5ccccc45)[C@H]12)OC3=O (some centres unmarked) [DETD-51]
Reply | > 10 µM

Ask | Enter reported IC50 observed with A2058 (BRAF mutation) for C=C1C(=O)OC2CC3=C[C@@H](C/C(C)=C/C(OC(=O)C(CC)CCCC)[C@H]12)OC3=O (some centres unmarked) [DETD-21]
Reply | > 10 µM

Ask | Enter reported IC50 observed with A2058 (BRAF mutation) for C=C1C(=O)OC2CC3=C[C@@H](C/C(C)=C/C(OC(=O)C=C(C)CCC=C(C)C)[C@H]12)OC3=O (some centres unmarked) [DETD-14]
Reply | > 10 µM

Ask | Enter reported IC50 observed with A2058 (BRAF mutation) for C=C1C(=O)OC2CC3=C[C@@H](C/C(C)=C/C(OC(=O)CC(C)(CC)OC(C)=O)[C@H]12)OC3=O (some centres unmarked) [DETD-11]
Reply | > 10 µM

Ask | Enter reported IC50 observed with A2058 (BRAF mutation) for C=C1C(=O)OC2CC3=C[C@@H](C/C(C)=C/C(OC(=O)/C=C/CC)[C@H]12)OC3=O (some centres unmarked) [DETD-25]
Reply | > 10 µM

Ask | Enter reported IC50 observed with A2058 (BRAF mutation) for C=C1C(=O)OC2CC3=C[C@@H](C/C(C)=C/C(OC(=O)c4ccccc4)[C@H]12)OC3=O (some centres unmarked) [DETD-31]
Reply | > 10 µM

Ask | Enter reported IC50 observed with A2058 (BRAF mutation) for C=C1C(=O)O[C@H]2CC3=C[C@@H](C/C(C)=C/[C@@H](OC(=O)c4ccc(OC)cc4)[C@H]12)OC3=O [DETD-32]
Reply | > 10 µM

Ask | Enter reported IC50 observed with A2058 (BRAF mutation) for C=C1C(=O)OC2CC3=C[C@@H](C/C(C)=C/C(OC(=O)/C=C/c4ccc(OC)cc4)[C@H]12)OC3=O (some centres unmarked) [DETD-26]
Reply | > 10 µM

Ask | Enter reported IC50 observed with A2058 (BRAF mutation) for C=C1C(=O)OC2CC3=C[C@@H](C/C(C)=C/[C@@H](OC(=O)Cc4csc5ccccc45)[C@H]12)OC3=O (some centres unmarked) [DETD-58]
Reply | 5 µM

Ask | Enter reported IC50 observed with A2058 (BRAF mutation) for C=C1C(=O)OC2CC3=C[C@@H](C/C(C)=C/C(OC(=O)c4cc5ccccc5o4)[C@H]12)OC3=O (some centres unmarked) [DETD-40]
Reply | > 10 µM
